# TGT: CathepsinG, from human neutrophils (Homo sapiens)
# Sequence (P08311 21-244): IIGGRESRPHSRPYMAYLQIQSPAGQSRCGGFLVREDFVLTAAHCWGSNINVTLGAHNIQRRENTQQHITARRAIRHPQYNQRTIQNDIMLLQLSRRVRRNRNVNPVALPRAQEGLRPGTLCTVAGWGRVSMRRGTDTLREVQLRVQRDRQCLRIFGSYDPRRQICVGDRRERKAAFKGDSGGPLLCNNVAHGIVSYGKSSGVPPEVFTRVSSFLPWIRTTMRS
# MEASUREMENT PROTOCOL: Enzymatic assay, cathepsin G
# CONDITION LABEL: Cathepsin G IC50
Where a SMILES comes first, the peptide text is derived from it.
PROPERTY: IC50 (µM)
State the answer as a number, implicitly in µM.

Recorded IC50 (compound CCCC[C@@H]1NC(=O)[C@@H]2CCCN2C(=O)[C@H]2CCCN2C(=O)[C@H](Cc2ccc(O)cc2)NC(=O)[C@@H]2CSSC[C@H](NC1=O)C(=O)N[C@@H]([C@@H](C)O)C(=O)N[C@@H](C)C(=O)N[C@@H](CO)C(=O)N[C@@H](C1CCCCC1)C(=O)N1CCC[C@H]1C(=O)N1CCC[C@H]1C(=O)N[C@@H](CCC(N)=O)C(=O)N2 [Ex. 84] (HELM PEPTIDE1{[Nle].C.T.A.S.[O=C([C@@H](N[*:1])C1CCCCC1)[*:2]].P.P.Q.C.Y.[dP].P}$PEPTIDE1,PEPTIDE1,2:R3-10:R3|PEPTIDE1,PEPTIDE1,1:R1-13:R2$$$V2.0) ): 20.2

---

# TGT: Trypsin, from human pancreas (Homo sapiens)
# MEASUREMENT PROTOCOL: Enzymatic assay, trypsin
# CONDITION LABEL: at 100 μM
Where a SMILES comes first, the peptide text is derived from it.
PROPERTY: Trypsin at 100 μM % (%)
All answers are understood in %, so give the number only.

Solved entries:
MOLECULE	RECORDED VALUE
CCCCCCCC[C@@H]1NC(=O)[C@@H]2CCCN2C(=O)[C@H]2CCCN2C(=O)[C@H](Cc2ccc(O)cc2)NC(=O)[C@H]([C@@H](C)O)NC(=O)[C@H](CCC(N)=O)NC(=O)[C@@H]2CCCN2C(=O)[C@@H]2CCCN2C(=O)[C@H]([C@@H](C)CC)NC(=O)[C@H](CO)NC(=O)[C@H](C)NC(=O)[C@H]([C@@H](C)O)NC(=O)[C@H](CCC(N)=O)NC1=O [Ex. 154] (HELM PEPTIDE1{[CCCCCCCC[C@H](N[*:1])C(=O)[*:2]].Q.T.A.S.I.P.P.Q.T.Y.[dP].P}$PEPTIDE1,PEPTIDE1,1:R1-13:R2$$$V2.0)	0
CCCC[C@@H]1NC(=O)[C@@H]2CCCN2C(=O)[C@@H]2CCCN2C(=O)[C@H](CC(=O)O)NC(=O)[C@H](CO)NC(=O)[C@H](CCCCN)NC(=O)[C@H]([C@@H](C)O)NC(=O)[C@@H]2CSSC[C@H](NC1=O)C(=O)N[C@@H](CCCNC(=N)N)C(=O)N1CCC[C@@H]1C(=O)N1CCC[C@H]1C(=O)N[C@@H]([C@@H](C)CC)C(=O)N2 [Ex. 57] (HELM PEPTIDE1{I.C.T.K.S.D.P.P.[Nle].C.R.[dP].P}$PEPTIDE1,PEPTIDE1,2:R3-10:R3|PEPTIDE1,PEPTIDE1,1:R1-13:R2$$$V2.0)	94
CC[C@H](C)[C@@H]1NC(=O)[C@@H]2CCCN2C(=O)[C@@H]2CCCN2C(=O)[C@H](CC(=O)O)NC(=O)[C@H](CO)NC(=O)[C@H](CCCCN)NC(=O)[C@H]([C@@H](C)O)NC(=O)[C@@H]2CSSC[C@H](NC1=O)C(=O)N[C@@H]([C@@H](C)O)C(=O)N1CCC[C@@H]1C(=O)N1CCC[C@H]1C(=O)N[C@@H](C1CCCCC1)C(=O)N2 [Ex. 38] (HELM PEPTIDE1{[O=C([C@@H](N[*:1])C1CCCCC1)[*:2]].C.T.K.S.D.P.P.I.C.T.[dP].P}$PEPTIDE1,PEPTIDE1,2:R3-10:R3|PEPTIDE1,PEPTIDE1,1:R1-13:R2$$$V2.0)	96

The record that follows has no Trypsin at 100 μM % shown yet.
// field: Trypsin at 100 μM %; key: CC[C@H](C)[C@@H]1NC(=O)[C@@H]2CCCN2C(=O)[C@@H]2CCCN2C(=O)[C@H](CC(=O)O)NC(=O)[C@H](CO)NC(=O)[C@H](CCCCN)NC(=O)[C@H]([C@@H](C)O)NC(=O)[C@@H]2CSSC[C@H](NC1=O)C(=O)N[C@@H](CC(N)=O)C(=O)N1CCC[C@@H]1C(=O)N1CCC[C@H]1C(=O)N[C@@H](Cc1ccc(N)cc1)C(=O)N2 [Ex. 31] (HELM PEPTIDE1{[Nc1ccc(C[C@H](N[*:1])C(=O)[*:2])cc1].C.T.K.S.D.P.P.I.C.N.[dP].P}$PEPTIDE1,PEPTIDE1,2:R3-10:R3|PEPTIDE1,PEPTIDE1,1:R1-13:R2$$$V2.0) ; value = 98
